- TEST TARGET: Tumour suppressor p53/oncoprotein Mdm2 (Homo sapiens, UniProt Q00987)
- Sequence (P04637 whole entry): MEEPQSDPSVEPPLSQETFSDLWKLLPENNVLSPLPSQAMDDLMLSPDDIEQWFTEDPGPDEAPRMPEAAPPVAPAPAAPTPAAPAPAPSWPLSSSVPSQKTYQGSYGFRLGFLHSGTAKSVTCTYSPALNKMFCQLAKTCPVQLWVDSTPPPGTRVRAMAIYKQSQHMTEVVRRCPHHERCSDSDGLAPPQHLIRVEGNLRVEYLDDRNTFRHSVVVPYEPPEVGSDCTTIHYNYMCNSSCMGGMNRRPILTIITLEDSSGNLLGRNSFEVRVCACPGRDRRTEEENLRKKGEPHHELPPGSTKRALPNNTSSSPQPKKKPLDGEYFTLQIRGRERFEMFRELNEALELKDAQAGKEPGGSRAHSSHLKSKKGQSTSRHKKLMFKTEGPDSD
- Sequence (Q00987 whole entry): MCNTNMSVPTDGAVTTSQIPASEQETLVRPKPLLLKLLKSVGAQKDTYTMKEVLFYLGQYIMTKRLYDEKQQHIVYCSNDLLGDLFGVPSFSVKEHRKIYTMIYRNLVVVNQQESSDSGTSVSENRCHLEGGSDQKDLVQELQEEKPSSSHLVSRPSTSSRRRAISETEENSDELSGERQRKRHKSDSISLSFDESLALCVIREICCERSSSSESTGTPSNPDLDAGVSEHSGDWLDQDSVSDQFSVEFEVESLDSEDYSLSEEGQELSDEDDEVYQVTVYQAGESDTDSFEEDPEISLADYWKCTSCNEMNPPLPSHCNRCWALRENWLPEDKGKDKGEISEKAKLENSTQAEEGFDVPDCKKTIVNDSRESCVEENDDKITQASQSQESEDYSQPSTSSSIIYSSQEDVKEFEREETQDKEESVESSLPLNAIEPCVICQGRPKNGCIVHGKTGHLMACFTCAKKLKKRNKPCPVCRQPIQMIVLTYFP
- PROTOCOL NOTES: Inhibition of HDM2-p53 (unknown origin) protein-protein interaction by fluorescence polarization peptide displacement assay
pIC50: −log10 of the molar value.
Entries and their measured pIC50 follow.

>  <SMILES REPRESENTATION>
CCC[C@H]1N(C(=O)c2cnccc2C(F)(F)F)CCC[C@@]1(Oc1csc(C(F)(F)F)c1)C(=O)N1CCN(c2ccccc2OC)CC1

>  <pIC50>
7.52

$$$$
>  <SMILES REPRESENTATION>
CCC[C@H]1N(C(=O)c2c(C(F)(F)F)ccnc2O)CCC[C@@]1(Oc1csc(C(F)(F)F)c1)C(=O)N1CCN(c2ccccc2OCCO)CC1

>  <pIC50>
7.36

$$$$
>  <SMILES REPRESENTATION>
CCC[C@H]1N(C(=O)c2c(F)cccc2C(F)(F)F)CCC[C@@]1(Oc1csc(C(F)(F)F)c1)C(=O)N1CCN(c2ccccc2OCCO)CC1

>  <pIC50>
7.19

$$$$
>  <SMILES REPRESENTATION>
CCC[C@H]1N(C(=O)c2c(C(F)(F)F)ccnc2O)CCC[C@@]1(Oc1csc(C(F)(F)F)c1)C(=O)N1CCN(c2ccccc2OC)CC1

>  <pIC50>
7.49

$$$$
>  <SMILES REPRESENTATION>
CCC[C@H]1N(C(=O)c2cccnc2C(F)(F)F)CCC[C@@]1(Oc1csc(C(F)(F)F)c1)C(=O)N1CCN(c2ccccc2OCCO)CC1

>  <pIC50>
6.93

$$$$
>  <SMILES REPRESENTATION>
CCC[C@H]1N(C(=O)c2cnccc2C(F)(F)F)CCC[C@@]1(Oc1csc(C(F)(F)F)c1)C(=O)N1CCN(c2ccccc2OCCO)CC1

>  <pIC50>
7.82

$$$$
>  <SMILES REPRESENTATION>
CCC[C@H]1N(C(=O)c2c(C(F)(F)F)ccnc2OCCN(C)C)CCC[C@@]1(Oc1csc(C(F)(F)F)c1)C(=O)N1CCN(c2ccccc2OCCO)CC1

>  <pIC50>
8.00

$$$$
